Quick reference for log10(GI50) among some molecules
System: Panc 05.04 cells (SF3b K700E mutant)
measurement-protocol: Cell proliferation and viability, CellTiter-Glo, 72 hours
Format: cell-based
recorded-conditions: Panc 05.04, read-out: CTGlo-ATS GMean GI50 (nM) 72 h PANC0504.1; PANC0504.1 cells, 72 h; geometric mean
Units before log transform: nM; reported quantity: GI50; transform: log10.

[
  {
    "molecule": "C/C(=C\\c1cc(F)cc(N2CCN(S(=O)(=O)c3cn(C)cn3)CC2)c1)[C@H]1OC(=O)C[C@H](O)CC[C@H](C)[C@@H](OC(=O)N2CCN(C)CC2)/C=C/[C@@H]1C",
    "target-under-test": "Panc 05.04 cells (SF3b K700E mutant)",
    "log10(GI50)": 1.69
  },
  {
    "molecule": "C/C(=C\\c1cc(F)cc(N2CCN(C(=O)CC3CC3)CC2)c1)[C@H]1OC(=O)C[C@H](O)CC[C@H](C)[C@@H](OC(=O)N2CCN(C)CC2)/C=C/[C@@H]1C",
    "target-under-test": "Panc 05.04 cells (SF3b K700E mutant)",
    "log10(GI50)": 0.57
  },
  {
    "molecule": "C/C(=C\\c1cc(F)cc(N2CCOCC2)c1)[C@H]1OC(=O)C[C@H](O)CC[C@@](C)(O)[C@@H](OC(=O)N2CCC(N3CCCCC3)CC2)/C=C/[C@@H]1C",
    "target-under-test": "Panc 05.04 cells (SF3b K700E mutant)",
    "log10(GI50)": 1.61
  },
  {
    "molecule": "C/C(=C\\c1ccnc(N2CCOCC2)c1)[C@H]1OC(=O)C[C@H](O)CC[C@H](C)[C@@H](OC(=O)N2CCN(C)CC2)/C=C/[C@@H]1C",
    "target-under-test": "Panc 05.04 cells (SF3b K700E mutant)",
    "log10(GI50)": 1.20
  },
  {
    "molecule": "C/C(=C\\c1cc(F)cc(N(C)C)c1)[C@H]1OC(=O)C[C@H](O)CC[C@H](C)[C@@H](OC(=O)N2CCN(C)CC2)/C=C/[C@@H]1C",
    "target-under-test": "Panc 05.04 cells (SF3b K700E mutant)",
    "log10(GI50)": 1.54
  },
  {
    "molecule": "C/C(=C\\c1cc(F)c2nnn(C3CCOCC3)c2c1)[C@H]1OC(=O)C[C@H](O)CC[C@H](C)[C@@H](OC(=O)N2CCN(C)CC2)/C=C/[C@@H]1C",
    "target-under-test": "Panc 05.04 cells (SF3b K700E mutant)",
    "log10(GI50)": 0.21
  }
]

Q. Consider the molecule C/C(=C\c1cc(F)cc(N(C)C2COC2)c1)[C@H]1OC(=O)C[C@H](O)CC[C@H](C)[C@@H](OC(=O)N2CCN(C)CC2)/C=C/[C@@H]1C . State its measured log10(GI50).
A. 0.95

Q. Consider the molecule C/C(=C\c1cc(F)cc(N2CCN(C#CF)C2=O)c1)[C@H]1OC(=O)C[C@H](O)CC[C@H](C)[C@@H](OC(=O)N2CCN(C)CC2)/C=C/[C@@H]1C . State its measured log10(GI50).
A. 0.91

Q. Consider the molecule C/C(=C\c1cc(F)cc(N2CCOCC2)c1)[C@H]1OC(=O)C[C@H](O)CC[C@H](C)[C@@H](OC(=O)N(C)C2CCCN(C)C2)/C=C/[C@@H]1C (stereo partly shown) . State its measured log10(GI50).
A. 0.66

Q. Consider the molecule C/C(=C\c1cc(C)cc(N2CCOCC2)c1)[C@H]1OC(=O)C[C@H](O)CC[C@H](C)[C@@H](OC(=O)N2CCN(C)CC2)/C=C/[C@@H]1C . State its measured log10(GI50).
A. 1.30

Q. Consider the molecule C/C(=C\c1cc(F)cc(N2CC(F)C2)c1)[C@H]1OC(=O)C[C@H](O)CC[C@H](C)[C@@H](OC(=O)N2CCN(C)CC2)/C=C/[C@@H]1C . State its measured log10(GI50).
A. 1.16

Q. Consider the molecule CC[C@H](O)[C@@H](C)CN1CCN(c2cc(F)cc(/C=C(\C)[C@H]3OC(=O)C[C@H](O)CC[C@H](C)[C@@H](OC(=O)N4CCN(C)CC4)/C=C/[C@@H]3C)c2)CC1 . State its measured log10(GI50).
A. 1.06

Q. Consider the molecule COCC(=O)N1CCN(c2cc(F)cc(/C=C(\C)[C@H]3OC(=O)C[C@H](O)CC[C@H](C)[C@@H](OC(=O)N4CCN(C)CC4)/C=C/[C@@H]3C)c2)CC1 . State its measured log10(GI50).
A. 0.52

Q. Consider the molecule C/C(=C\c1ccc2cn[nH]c2c1)[C@H]1OC(=O)C[C@H](O)CC[C@H](C)[C@@H](OC(=O)N2CCN(C)CC2)/C=C/[C@@H]1C . State its measured log10(GI50).
A. 1.43

Q. Consider the molecule C/C(=C\c1cc(F)cc(N2CCOC[C@@H]2C)c1)[C@H]1OC(=O)C[C@H](O)CC[C@H](C)[C@@H](OC(=O)N2CCN(C)CC2)/C=C/[C@@H]1C . State its measured log10(GI50).
A. 1.19

Q. Consider the molecule C/C(=C\c1cc(F)cc(N2CCOCC2)c1)[C@H]1OC(=O)C[C@H](O)CC[C@H](C)[C@@H](OC(=O)N(C)Cc2ccncc2)/C=C/[C@@H]1C . State its measured log10(GI50).
A. 1.89

Q. Consider the molecule C/C(=C\c1cncc(Cl)c1)[C@H]1OC(=O)C[C@H](O)CC[C@H](C)[C@@H](OC(=O)N2CCN(C)CC2)/C=C/[C@@H]1C . State its measured log10(GI50).
A. 1.60

Q. Consider the molecule C/C(=C\c1cc(F)cc(N2CCOCC2=O)c1)[C@H]1OC(=O)C[C@H](O)CC[C@H](C)[C@@H](OC(=O)N2CCN(C)CC2)/C=C/[C@@H]1C . State its measured log10(GI50).
A. 0.27
